Measured values drawn from the supplement of paper PMC8728848 for this set.

molecular target: Glc(b1-4)Glc; test: glycan array binding signal (z-score within array); higher = stronger binding; settings: glycan notation: IUPAC condensed, linker removed
The sample as a whole holds a higher share of the strongest signals than the screen did.
endpointLabel: glycan array binding signal (z-score)
No unit in the answer, please; the number alone is enough.

For record MAA (Maackia amurensis), P0DKL3 (protein) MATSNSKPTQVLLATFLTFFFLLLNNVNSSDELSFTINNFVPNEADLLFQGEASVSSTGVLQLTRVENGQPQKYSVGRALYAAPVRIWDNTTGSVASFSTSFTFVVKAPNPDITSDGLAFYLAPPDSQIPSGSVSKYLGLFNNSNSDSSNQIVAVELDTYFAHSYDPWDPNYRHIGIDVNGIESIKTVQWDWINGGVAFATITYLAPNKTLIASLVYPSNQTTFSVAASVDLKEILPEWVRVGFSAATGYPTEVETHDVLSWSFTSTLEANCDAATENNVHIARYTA the listed glycan array binding signal (z-score) is -0.161
